Assay: Growth inhibition assay in MDCKII-BCRP cells
Assay type: cell-based, canine
Conditions: dog
value_type: IC50 at 48 h (µM)
Return type: number; implicit unit µM.

Would you mind telling me what IC50 at 48 h value was observed for CN1CCN(c2ccc3nc(-c4c(N)c5c(F)cccc5[nH]c4=O)[nH]c3c2)CC1 ?
21.4

====

Assay: Growth inhibition assay in MDCKII-MDR1 cells
Type: cell-based, canine
Conditions: dog
value_type: IC50 at 48 h (µM)
All answers are understood in µM, so give the number only.

Field request: IC50 at 48 h | item: CN1CCN(c2ccc3nc(-c4c(N)c5c(F)cccc5[nH]c4=O)[nH]c3c2)CC1 [Dovitinib]
18.3
